Data provenance: PubChem BioAssay (NCATS)

Target: Cytochrome P450 2C9 (Homo sapiens) (UniProt P11712)
Sequence (P11712 whole entry, looked up): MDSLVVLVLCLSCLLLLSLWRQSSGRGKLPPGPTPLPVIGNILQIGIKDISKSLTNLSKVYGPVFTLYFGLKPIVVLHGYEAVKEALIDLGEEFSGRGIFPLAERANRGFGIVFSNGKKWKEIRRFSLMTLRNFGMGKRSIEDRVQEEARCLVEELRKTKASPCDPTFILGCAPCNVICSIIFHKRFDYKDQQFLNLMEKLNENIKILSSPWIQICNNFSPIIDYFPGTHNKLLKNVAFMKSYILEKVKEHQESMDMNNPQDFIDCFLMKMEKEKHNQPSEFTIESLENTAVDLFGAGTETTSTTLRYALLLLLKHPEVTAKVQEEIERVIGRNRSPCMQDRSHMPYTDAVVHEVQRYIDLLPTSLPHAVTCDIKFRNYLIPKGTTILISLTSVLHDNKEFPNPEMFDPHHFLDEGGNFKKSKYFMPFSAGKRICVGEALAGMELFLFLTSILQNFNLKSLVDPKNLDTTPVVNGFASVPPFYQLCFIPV
Assay: Cytochrome P450 family 2 subfamily C member 9 (CYP2C9) small molecule antagonists: luciferase biochemical (cell-free) qHTS assay (AID 1645842); also: nearly all actives have a fitted effect of over 55% in size
Conditions: P450-Glo CYP2C9 enzyme assay, luciferin luminescence; series mostly up to 57.4 µM
Results filed as inconclusive are left out. Active and inactive are the calls of the source. Calls follow the shape of the dose curve; as a rule, active = well fitted inhibition curve with a large enough effect in the repeat runs; inconclusive = weak or mixed curves; inactive = no such curve, though single readings can be large or run the other way.
Select the correct class. Options are class 1 (active), class 0 (inactive) and nothing else.

Query block: Field: outcome | Entry: `COc1ccc(/C=C/C(=O)c2ccc(OC)cc2OC)cc1`
Result block: class 1

Query block: Field: outcome | Entry: `Cc1cccc(C)c1NC(=O)CN1CCN(CCCC(c2ccc(F)cc2)c2ccc(F)cc2)CC1`
Result block: class 1

Query block: Field: outcome | Entry: `CC[C@@H](CO)NCCN[C@@H](CC)CO`
Result block: class 0

Query block: Field: outcome | Entry: `Cc1cc(N)c2cc(NC(=O)Nc3ccc4nc(C)cc(N)c4c3)ccc2n1`
Result block: class 0

Query block: Field: outcome | Entry: CCN(CCCCOC(=O)c1ccc(OC)c(OC)c1)C(C)Cc1ccc(OC)cc1 (stereo not drawn)
Result block: class 0

Query block: Field: outcome | Entry: `CC(C)(CO)[C@@H](O)C(=O)NCCCO`
Result block: class 0

Query block: Field: outcome | Entry: `COc1cc2c(cc1OC)[C@@H]1CC(=O)[C@@H](CC(C)C)CN1CC2`
Result block: class 1

Query block: Field: outcome | Entry: `C[C@@H]1CN(CCCn2c3ccccc3c3ccccc32)C[C@H](C)N1`
Result block: class 0

Query block: Field: outcome | Entry: `Cc1c(C(N)=O)cc([N+](=O)[O-])cc1[N+](=O)[O-]`
Result block: class 0

Query block: Field: outcome | Entry: `CC(C)(C)CC(C)(C)c1ccc(O)c(Cc2ccc(Cl)cc2Cl)c1`
Result block: class 1

Query block: Field: outcome | Entry: `COC1=CC(=O)C[C@@H](C)[C@]12Oc1c(Cl)c(OC)cc(OC)c1C2=O`
Result block: class 0

Query block: Field: outcome | Entry: `COc1cc(C(=S)N2CCOCC2)cc(OC)c1OC`
Result block: class 0

Query block: Field: outcome | Entry: CCC(C(=O)OCCN(CC)CC)c1ccccc1 (stereo not drawn)
Result block: class 0
